Tested on: M. mycetomatis strain mm55
assay_context: primary screen, metabolic activity vs growth control; 96 h, 2 µM; inhibitor
Counter-ions that a name gives are not always drawn. In all, about 5,300 compounds went through this assay and about 130 (2.5%) showed an effect of 50% or more. What follows is part of a selection rich in strong results, with near analogues and random picks from the rest.
measured_endpoint: % viability (%)
Dear colleague, please return just the value in %, with no unit written.

COCCNC(=O)COc1ccc(OCCNC[C@H](O)COc2ccccc2)cc1 : 94.55
C[S+]([O-])c1ccc(-c2nc(-c3ccncc3)c(-c3ccc(F)cc3)[nH]2)cc1 (stereo not drawn) : 87.12
CCCCCCCCCCCCCCCCCC(=O)OCC(O)[C@H]1OC[C@H](O)[C@H]1O (stereo partly drawn) [ONC0002989, sorbitanmonostearate] : 79.74
CC[C@H](C)[C@@H]([C@@H](CC(=O)N1CCC[C@H]1[C@H](OC)[C@@H](C)C(=O)N[C@@H](Cc1ccccc1)c1nccs1)OC)N(C)C(=O)[C@@H](NC(=O)[C@H](C(C)C)N(C)C)C(C)C : 74.88
O=c1[nH]ccc2cc(OC3CCNCC3)ccc12 [ONC0001198, sar407899 hydrochloride] : 94.6

Entry O=C1NCN(c2ccccc2)C12CCN(CCCC(c1ccc(F)cc1)c1ccc(F)cc1)CC2 : % viability on M. mycetomatis strain mm55 = 48.06

Entry CCn1cc(-c2cccc(C(F)(F)F)c2)c2sc(C(=N)NC3CCS(=O)(=O)CC3)cc2c1=O : % viability on M. mycetomatis strain mm55 = 45.4

Entry CCCCN1[C@@H]2CC[C@H]1C[C@@H](OC(c1ccc(F)cc1)c1ccc(F)cc1)C2 : % viability on M. mycetomatis strain mm55 = 64.39

Entry C/C=C1\NC(=O)[C@H]2CSSCC/C=C/[C@H](CC(=O)N[C@H](C(C)C)C(=O)N2)OC(=O)[C@H](C(C)C)NC1=O : % viability on M. mycetomatis strain mm55 = 49.6

* * *

Test system: M. mycetomatis strain mm55
assay_context: primary screen, metabolic activity vs growth control; 96 h, 2 µM; inhibitor
Where a name gives a salt, the structure may show the parent alone. Screen size: about 5,300 compounds; about 130 (2.5%) showed an effect of 50% or more. Only a selection was taken, and strong results are over-represented in it overall.
measured_endpoint: % viability (%)
Dear colleague, please return just the value in %, with no unit written.

Would you please look over these solved cases?
O=C(Nc1ccc(Cl)nc1)c1ccc(Cl)cc1 : 70.91
COC(=O)[C@H](NC(=O)c1cc(-c2ccccc2)nc2ccccc12)c1ccccc1 : 80.75
C/C=C/C1=C(C(=O)O)N2C(=O)[C@@H](NC(=O)[C@H](N)c3ccc(O)cc3)[C@H]2SC1 : 75.17
COC(=O)[C@H]1[C@@H](C)[C@@H](OC)C=CO[C@@]2(C)Oc3c(C)c(O)c4c(O)c(cc(O)c4c3C2=O)NC(=O)/C(C)=C\C=C/[C@@H](C)[C@@H](O)[C@@H](C)[C@H](O)[C@@H]1C [ONC0003453, rifamycin sv sodium salt] : 53.39
CC(=O)N1CCN(c2ccc(OCC3COC(Cn4ccnc4)(c4ccc(Cl)cc4Cl)O3)cc2)CC1 (centres unmarked) : 1.788

// % viability value for O=C(O)c1ccccc1 : 90.48

// % viability value for CCC(C)n1ncn(-c2ccc(N3CCN(c4ccc(OCC5COC(Cn6cncn6)(c6ccc(Cl)cc6Cl)O5)cc4)CC3)cc2)c1=O (centres unmarked) [Itraconazole hydrochloride] : 4.9

// % viability value for CCOc1ccc2nc(SCCN3CCOCC3)[nH]c2c1 [ONC0001849, fabomotizole hydrochloride] : 108.3
